Tested System: parathyroid cell calcium receptor (Bos taurus)
Assay Overview: cell-based
Type: cell-based
Parameter: EC50 (µM)
Number in µM, nothing else.

Data point: N=C(N)NCCC[C@H](N)C(=O)NCCCNCCCNCCCCCNC(=O)[C@H](CC(N)=O)NC(=O)Cc1c[nH]c2cccc(O)c12 [Argiotoxin-659, reference compound] ; EC50 = 300

###

// values below are reported pEC50
Tested System: parathyroid cell calcium receptor (Bos taurus, UniProt P35384)
Sequence (P35384 21-1085 limits assumed): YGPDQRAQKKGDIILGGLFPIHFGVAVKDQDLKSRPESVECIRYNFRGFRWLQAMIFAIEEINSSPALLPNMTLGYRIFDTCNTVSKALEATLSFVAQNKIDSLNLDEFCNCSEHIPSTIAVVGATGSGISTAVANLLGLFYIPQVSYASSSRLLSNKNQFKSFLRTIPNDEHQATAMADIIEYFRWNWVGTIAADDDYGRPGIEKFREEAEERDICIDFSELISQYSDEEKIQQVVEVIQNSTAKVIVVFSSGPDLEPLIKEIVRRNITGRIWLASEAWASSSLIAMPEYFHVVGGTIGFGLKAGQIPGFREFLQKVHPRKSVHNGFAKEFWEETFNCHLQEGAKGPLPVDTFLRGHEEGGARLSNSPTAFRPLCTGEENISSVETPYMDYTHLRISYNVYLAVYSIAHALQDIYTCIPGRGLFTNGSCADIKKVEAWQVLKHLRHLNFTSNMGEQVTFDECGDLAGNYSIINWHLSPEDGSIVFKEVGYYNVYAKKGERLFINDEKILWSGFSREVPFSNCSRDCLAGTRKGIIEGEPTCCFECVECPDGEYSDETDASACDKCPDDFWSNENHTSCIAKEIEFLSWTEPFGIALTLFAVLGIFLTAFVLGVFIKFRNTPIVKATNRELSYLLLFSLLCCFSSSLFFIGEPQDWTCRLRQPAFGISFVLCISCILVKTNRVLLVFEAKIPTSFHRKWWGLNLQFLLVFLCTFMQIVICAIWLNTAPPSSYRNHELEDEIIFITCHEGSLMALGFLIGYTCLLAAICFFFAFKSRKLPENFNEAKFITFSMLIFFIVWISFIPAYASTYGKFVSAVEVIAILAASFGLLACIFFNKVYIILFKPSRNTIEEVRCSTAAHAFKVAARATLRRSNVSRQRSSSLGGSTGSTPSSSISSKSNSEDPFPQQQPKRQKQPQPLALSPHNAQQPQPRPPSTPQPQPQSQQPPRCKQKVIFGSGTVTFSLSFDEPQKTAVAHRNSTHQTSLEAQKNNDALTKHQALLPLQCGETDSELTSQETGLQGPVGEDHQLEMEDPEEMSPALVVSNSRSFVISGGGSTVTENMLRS
Assay Overview: cell-based
Assay type: cell-based
Details: Table 8 (arylalkylamine calcimimetics); parathyroid cell calcium receptor; read-out: EC50
Please treat pEC50 as minus the base-10 logarithm of the molar concentration.

# Compound, pEC50
rows = [
    ("COc1ccc([C@H](C)N[C@H](C)c2cccc3ccccc23)cc1 [Compound 14V]", 5.77),
    ("CC(NCCC(c1ccccc1)c1ccccc1)c1cccc2ccccc12 (centres unmarked)", 6.19),
    ("COc1cccc([C@@H](C)NC2CCc3ccccc3C2)c1 (some centres unmarked)", 5.44),
]

Consider the additional compound presented here.
get_value(item= COc1ccc(CN[C@H](C)c2cccc3ccccc23)cc1 [Compound 13U] , readout=pEC50) returns 6.72
